Values compiled from patent US8906917B2.

Quick reference: pKi of the listed items.
Target: glucocorticoid receptors (endogenous) in SW1353/MMTV-5 cells (Homo sapiens, UniProt P04150)
Construct: contains endogenous glucocorticoid receptors; endogenous in cells
Sequence (P04150 1-777): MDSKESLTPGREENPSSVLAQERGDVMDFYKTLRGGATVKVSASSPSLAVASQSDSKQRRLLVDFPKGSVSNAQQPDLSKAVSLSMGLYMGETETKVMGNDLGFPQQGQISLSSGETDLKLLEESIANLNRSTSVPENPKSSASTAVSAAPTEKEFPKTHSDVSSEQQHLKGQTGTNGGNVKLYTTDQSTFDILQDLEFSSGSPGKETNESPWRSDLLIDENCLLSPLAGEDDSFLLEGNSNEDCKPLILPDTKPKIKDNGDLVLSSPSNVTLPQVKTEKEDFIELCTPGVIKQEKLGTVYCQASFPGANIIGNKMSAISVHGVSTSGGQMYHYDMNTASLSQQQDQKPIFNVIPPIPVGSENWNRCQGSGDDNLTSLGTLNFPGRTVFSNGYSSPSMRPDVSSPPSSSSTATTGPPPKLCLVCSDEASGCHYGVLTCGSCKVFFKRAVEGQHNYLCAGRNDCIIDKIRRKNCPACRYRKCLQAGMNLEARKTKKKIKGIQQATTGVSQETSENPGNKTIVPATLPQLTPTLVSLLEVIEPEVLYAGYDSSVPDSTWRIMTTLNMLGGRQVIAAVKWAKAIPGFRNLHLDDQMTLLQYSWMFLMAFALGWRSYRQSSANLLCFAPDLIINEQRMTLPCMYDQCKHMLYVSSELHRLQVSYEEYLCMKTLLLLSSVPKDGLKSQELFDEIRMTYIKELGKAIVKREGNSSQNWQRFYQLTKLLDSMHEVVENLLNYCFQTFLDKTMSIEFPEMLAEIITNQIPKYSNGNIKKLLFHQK
Experiment: GR functional assay using SW1353/MMTV-5 cells (MMTV-GRE luciferase reporter)
pKi: −log10 of the molar value.

Known results for molecules:
[[record]]
molecule = "Nc1cccc(Cc2c(=O)[nH]c(=O)[nH]c2[C@H]2CC[C@H](c3ccccc3)CC2)n1 [Compound 3cc]"
measured = "< 7.00"

[[record]]
molecule = "Cc1cccc(Cc2c(=O)[nH]c(=O)[nH]c2[C@H]2CC[C@H](c3ccccc3)CC2)n1 [Compound 3j]"
measured = "7.00 to 7.30"


**Q:** Look up pKi for this molecule: Cc1cccc(Cc2c(=O)n(C)c(=O)[nH]c2[C@H]2CC[C@H](c3ccccc3)CC2)c1 [Compound 13a]
**A:** > 7.30

**Q:** Please give the measured pKi for this molecule: O=c1[nH]c(=O)c(Cc2cccc(C(F)(F)F)n2)c([C@H]2CC[C@H](c3ccccc3)CC2)[nH]1 [Compound 3l]
**A:** > 7.30

**Q:** Returns the measured pKi for the input molecule. Input: Cc1cccc(Cc2c(=O)[nH]c(=O)[nH]c2[C@H]2CC[C@H](c3ccccc3)CC2)c1 [Compound 3h]
**A:** > 7.30

**Q:** Need pKi, item Cn1c(=O)[nH]c([C@H]2CC[C@H](c3ccccc3)CC2)c(Cc2cccc(C(F)(F)F)c2)c1=O [Compound 13d]
**A:** < 7.00

**Q:** Quick one: pKi of CCc1ccccc1Cc1c(=O)[nH]c(=O)[nH]c1[C@H]1CC[C@H](c2ccccc2)CC1 [Compound 3s] ?
**A:** 7.00 to 7.30

**Q:** Consider the molecule O=c1[nH]c(=O)c(Cc2ccccc2Cl)c([C@H]2CC[C@H](c3ccccc3)CC2)[nH]1 [Compound 3c] and give its measured pKi.
**A:** > 7.30

**Q:** Which pKi is listed for Cc1cccc(Cc2c(C3=CCC(c4ccccc4)CC3)[nH]c(=O)[nH]c2=O)c1 (stereo not drawn) [Compound 2b] ?
**A:** 7.00 to 7.30

**Q:** I have this molecule here, O=c1[nH]c(=O)c(Cc2cc(C(F)(F)F)ccn2)c([C@H]2CC[C@H](c3ccccc3)CC2)[nH]1 [Compound 3r] , and I need its recorded pKi.
**A:** 7.00 to 7.30

**Q:** Which value of pKi has been reported for Cc1cccc(Cc2c(=O)n(CCN(C)C)c(=O)[nH]c2[C@H]2CC[C@H](c3ccccc3)CC2)c1 [Compound 13b] in the records?
**A:** < 7.00

**Q:** Please report the recorded pKi for O=c1[nH]c(=O)c(Cc2cccc(F)c2F)c([C@H]2CC[C@H](c3ccccc3)CC2)[nH]1 [Compound 3z] .
**A:** > 7.30

**Q:** What value of measured pKi is listed for Cc1csc(Cc2c(=O)[nH]c(=O)[nH]c2[C@H]2CC[C@H](c3ccccc3)CC2)n1 [Compound 3t] ?
**A:** < 7.00

**Q:** Would you kindly share the measured pKi for O=c1[nH]c(=O)c(Cc2ccc(F)cc2F)c([C@H]2CC[C@H](c3ccccc3)CC2)[nH]1 [Compound 3y] ?
**A:** 7.00 to 7.30

**Q:** Tell me the measured pKi of Cc1ccccc1Cc1c(C2=CCC(c3ccccc3)CC2)[nH]c(=O)[nH]c1=O (stereo not drawn) [Compound 2d] , please.
**A:** < 7.00
